Origin of the recorded values: patent US10662159B2

Property: IC50; scope: individual compounds
Target: Rat ΔTM FAAH (Rattus norvegicus (Rat))
Sequence (P97612 30-579): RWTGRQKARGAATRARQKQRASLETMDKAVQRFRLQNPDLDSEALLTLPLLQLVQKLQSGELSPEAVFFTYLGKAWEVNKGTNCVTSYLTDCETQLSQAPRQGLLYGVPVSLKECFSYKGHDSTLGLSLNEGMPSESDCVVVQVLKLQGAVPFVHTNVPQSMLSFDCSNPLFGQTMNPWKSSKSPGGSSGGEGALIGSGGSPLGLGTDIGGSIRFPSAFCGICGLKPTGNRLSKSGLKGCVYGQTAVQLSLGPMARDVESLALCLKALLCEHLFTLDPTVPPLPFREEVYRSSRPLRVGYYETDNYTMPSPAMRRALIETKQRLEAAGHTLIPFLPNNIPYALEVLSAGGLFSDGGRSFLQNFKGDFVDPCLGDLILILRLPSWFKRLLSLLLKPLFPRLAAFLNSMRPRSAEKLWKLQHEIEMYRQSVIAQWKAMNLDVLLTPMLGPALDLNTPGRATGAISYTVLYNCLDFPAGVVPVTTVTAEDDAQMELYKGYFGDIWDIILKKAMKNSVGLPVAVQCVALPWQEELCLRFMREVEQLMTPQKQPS
recorded-endpoint: IC50

compound: COc1cc2c(cc1OC)CN(C(=O)OC(C(F)(F)F)C(F)(F)F)C2 [Example 21]
system-under-test: Rat ΔTM FAAH (Rattus norvegicus (Rat))
recorded-endpoint: IC50
result: > 1 µM
--
compound: O=C(OC(C(F)(F)F)C(F)(F)F)N1CCc2cc(Br)ccc2C1 [Example 17]
system-under-test: Rat ΔTM FAAH (Rattus norvegicus (Rat))
recorded-endpoint: IC50
result: > 1 µM
--
compound: CC1(C)C2C(=O)N(OC(=O)N3CC4(CC(Oc5cccc(C(F)(F)F)c5)C4)C3)C(=O)C21 (stereo not drawn) [Example 63]
system-under-test: Rat ΔTM FAAH (Rattus norvegicus (Rat))
recorded-endpoint: IC50
result: > 1 µM

###

Biological target: Rat ΔTM FAAH (Rattus norvegicus (Rat))
Assay: Fluorescent assay for rat ΔTM FAAH (AAMCA substrate)
Assay type: biochemical
Conditions: ΔTM rFAAH, AAMCA 20 μM; read-out: rFAAH Inhibition IC50
Listed below: IC50 values for each entry.
recorded-endpoint: IC50

molecule: O=C(OC(C(F)(F)F)C(F)(F)F)N1Cc2ccc(N3CCS(=O)(=O)CC3)cc2C1
system-under-test: Rat ΔTM FAAH (Rattus norvegicus (Rat))
result: > 1000 nM
//
molecule: COc1ccc2c(c1)CN(C(=O)OC(C(F)(F)F)C(F)(F)F)C2
system-under-test: Rat ΔTM FAAH (Rattus norvegicus (Rat))
result: > 1000 nM
//
molecule: O=C(OC(C(F)(F)F)C(F)(F)F)N1Cc2ccc(Cl)nc2C1
system-under-test: Rat ΔTM FAAH (Rattus norvegicus (Rat))
result: > 1000 nM
//
molecule: CC1(C)C2C(=O)N(OC(=O)N3CCc4c(Br)cccc4C3)C(=O)C21 (centres unmarked)
system-under-test: Rat ΔTM FAAH (Rattus norvegicus (Rat))
result: > 1000 nM
//
molecule: O=C(O[C@H](CO)C(F)(F)F)N1CCc2c(Br)cccc2C1
system-under-test: Rat ΔTM FAAH (Rattus norvegicus (Rat))
result: > 1000 nM

###

So I've got IC50 readings for hABHD6 (Homo sapiens (Human)), take a look.
recorded-endpoint: IC50

molecule: O=C(OC(C(F)(F)F)C(F)(F)F)N1CC2(CC(Oc3cccc(C(F)(F)F)c3)C2)C1
result: 10 to 100 nM
//
molecule: CC1c2ccccc2CCN1C(=O)OC(C(F)(F)F)C(F)(F)F (racemic)
result: > 1000 nM
//
molecule: CC1(C)C2C(=O)N(OC(=O)N3CC4(CC(Oc5cccc(C(F)(F)F)c5)C4)C3)C(=O)C21 (stereo not shown)
result: 10 to 100 nM
//
molecule: CC1(C)C2C(=O)N(OC(=O)N3CCc4c(Br)cccc4C3)C(=O)C21 (stereo not shown)
result: 10 to 100 nM
//
molecule: CC1c2ccc(Br)cc2CN1C(=O)OC(C(F)(F)F)C(F)(F)F (stereo not shown)
result: > 1000 nM
//
molecule: O=C(OC(C(F)(F)F)C(F)(F)F)N1CCc2c(cccc2OCCCF)C1
result: 10 to 100 nM
//
molecule: CC1CN(C(=O)OC(C(F)(F)F)C(F)(F)F)Cc2ccccc21 (stereo not shown)
result: 100 to 1000 nM
//
molecule: COc1ccc(-c2ccc3c(c2)CN(C(=O)OC(C(F)(F)F)C(F)(F)F)C3)cc1F
result: 10 to 100 nM
//
molecule: O=C(O[C@H](CO)C(F)(F)F)N1CCc2c(Br)cccc2C1
result: 10 to 100 nM
//
molecule: O=C(OC(CF)CF)N1CCc2c(Br)cccc2C1
result: > 1000 nM
